tested on: Trypanosoma cruzi; assay: GSK_TCAKS: pIC50 Trypanosoma cruzi viability assay using beta-GAL activity. This assay was run at single shot at 5uM compound concentration per well. The biological reagents consisted of NIH-3T3 host cells and trypomastigotes parasitic cells; both cell types were set to a 3.3 * 10^5 cells/mL dilution in assay DMEM by means of a CASY cell counter device using a 60um capillary. 6 uL of the mixture were dispensed per well (about 1 * 10^3 host-cells and 1 * 10^3 parasites) with a Multidrop Combi dispenser. […] In all wells, the percentage of DMSO never exceeded 0.5%. Plates incubated for four days at 37C, 5% CO2. The substrate used for the assay fluorescence intensity (FLINT) readout was resorufin-beta-D-galactopiranoside (Sigma-Aldrich) at 5uM per well. It was diluted in PBS supplemented with the soft detergent Igepal (Fluka).; format: functional, organism-based, Mus musculus; details: Tulahuen, NIH3T3
Measured IC50, listed per entry for reference.
Dear colleague, please return just the value in nM, with no unit written.

compound="Cc1nn(-c2nc3ccccc3s2)c2c1C(c1ccc(OCC(N)=O)cc1)SCC(=O)N2 (stereo unspecified)" targetsystem="Trypanosoma cruzi" assayresult=5010
compound=Cc1cccc(Nc2nc(-c3ccccn3)cs2)n1 targetsystem="Trypanosoma cruzi" assayresult=631
compound=O=C(c1cccc(Nc2ncc(-c3ccc4c(c3)OCO4)cn2)c1)N1CCOCC1 targetsystem="Trypanosoma cruzi" assayresult=6310

// switching to the query compound
Return reported IC50; argument: `Fc1ccc(O[C@H]2C[C@H](NCc3cccc4cn[nH]c34)C2)cc1C(F)(F)F`
794

====

Measured pIC50, listed per entry for reference.
test system: Trypanosoma cruzi; assay: GSK_TCAKS: pIC50 H2C9 Imaging: H9c2 Host Cardiomyocytes. […] Cells were then washed once with PBS before infection. T. cruzi trypomastigotes, collected at days 5 to 8 after infection from LLC-MK2 parasite infected cultures, were allowed to swim out for 4h at 37C from a centrifuged pellet (2,500 rpm/10 min/room temperature). Trypomastigotes were then collected and counted in a CASY Cell Counter. Trypomastigotes, in supplemented DMEM, were added to H9c2 cultures in a multiplicity of infection of 1 and incubated for 18 h. Cells were washed once with PBS before incubation of the infected H9c2 monolayer with trypsin (Life-Technologies) to detach cells from the flask. Cells were counted in a CASY Cell Counter using a 150 um capillary and their density set at 5 * 10^4 cells per mL in supplemented assay DMEM. Infected H9c2 were dispensed into 384-well poly-lysine coated assay plates at 50uL per well using a Multidrop Combi dispenser. After seeding them, the plates were incubated at 37C, 5% CO2 for 72h. Cultures were then fixed and stained by addition of 50 uL of a solution containing 8% formaldehyde and 4 uM DRAQ5 DNA dye (BioStatus, UK) per well. […] Five images were collected per well for reliable statistical analysis. Automated image analysis was performed with a script developed on Acapella High Content Imaging and Analysis Software (PerkinElmer). Output: Number of H9c2 Host Cardiomyocytes nuclei to determine drug-related cytotoxicity.; type: functional, organism-based, Rattus norvegicus; conditions: H9c2, 4 h
pIC50: −log10 of the molar value.

These recorded examples may help you get a feel for the data.
compound=O=C(Nc1nc(-c2ccc(S(=O)(=O)N3CCOCC3)cc2)cs1)c1ccc([N+](=O)[O-])cc1 parametermeasured=pIC50 assayresult="< 4.30"
compound="O=C1CCCCCC1(Cc1cnc[nH]1)c1ccc(Cl)cc1Cl (configuration not stated)" parametermeasured=pIC50 assayresult="< 4.30"
compound="CCOc1ccc(CC(=O)N2c3ccccc3CC2C(=O)NC)cc1 (configuration not stated)" parametermeasured=pIC50 assayresult="< 4.30"
compound="CN(Cc1ccc(F)cc1)c1ccc(OCC(=O)N2CCCCC2c2cccnc2)nn1 (configuration not stated)" parametermeasured=pIC50 assayresult="< 4.30"

Return reported pIC50; argument: CNC(=O)C1Cc2ccccc2N1C(=O)COc1cccc(OC)c1 (configuration not stated)
< 4.30

Return reported pIC50; argument: `CCOc1ccc(NC(=O)C=Cc2ccc(CC)o2)cc1`
< 4.30

Return reported pIC50; argument: `c1ccc(CNc2cccc3ccncc23)cc1`
< 4.30

Return reported pIC50; argument: `COc1ccc(NC(=O)c2ccc(NC(=O)CN(c3ccccc3C)S(C)(=O)=O)cc2)cc1`
4.60

Return reported pIC50; argument: `COc1cc2c(cc1OC)[C@H]1[C@@H](C)c3ccc(OC)c(OC)c3CN1CC2`
< 4.30

Return reported pIC50; argument: `O=C(NCCCn1cnc2ccccc21)c1ccc(NC(=O)c2ccco2)cc1`
< 4.30

Return reported pIC50; argument: `Cc1[nH]nc(C(F)(F)F)c1NC(=O)CCn1cc(Cl)c([N+](=O)[O-])n1`
< 4.30

Return reported pIC50; argument: `CN(Cc1nnnn1C1CCN(Cc2ccc(-n3ccnc3)cc2)CC1)c1ccc(F)cc1F`
< 4.30

====

tested on: Trypanosoma cruzi; experiment: GSK_TCAKS: pIC50 Trypanosoma cruzi viability assay using beta-GAL activity. This assay was run at single shot at 5uM compound concentration per well. The biological reagents consisted of NIH-3T3 host cells and trypomastigotes parasitic cells; both cell types were set to a 3.3 * 10^5 cells/mL dilution in assay DMEM by means of a CASY cell counter device using a 60um capillary. 6 uL of the mixture were dispensed per well (about 1 * 10^3 host-cells and 1 * 10^3 parasites) with a Multidrop Combi dispenser. […] In all wells, the percentage of DMSO never exceeded 0.5%. Plates incubated for four days at 37C, 5% CO2. The substrate used for the assay fluorescence intensity (FLINT) readout was resorufin-beta-D-galactopiranoside (Sigma-Aldrich) at 5uM per well. It was diluted in PBS supplemented with the soft detergent Igepal (Fluka).; assay type: functional, organism-based, Mus musculus; settings: Tulahuen, NIH3T3
pIC50: −log10 of the molar value.
Quick rule for you: pIC50 at 6 or higher means Fulfilled, lower means Not fulfilled.

Before answering, review these 4 worked examples.
compound="CC(C)CC(=O)NC(c1cccs1)c1ccc2cccnc2c1O (configuration not stated)" cat="Not fulfilled"
compound=Cc1nnc(-c2nc(NCc3ccc(Cl)cc3)c3cccnc3c2O)[nH]1 cat=Fulfilled
compound=O=C(NCCc1cccnc1)c1csc(-c2ccccc2)n1 cat=Fulfilled
compound=CCOc1ccc(CN(C)Cc2nc(Nc3ccc(C)cc3)[nH]c(=N)n2)cc1 cat="Not fulfilled"

Determine whether this compound has pIC50 no lower than 6: `CC(=O)Nc1ccc(CN2CCC(N3CC(c4ccccc4)(c4ccccc4)OCC3=O)CC2)cc1`
Not fulfilled

Determine whether this compound has pIC50 no lower than 6: `O=C(Cn1cnc([N+](=O)[O-])n1)Nc1ccc(Cl)cc1C(=O)c1ccccc1`
Fulfilled

====

system: Leishmania donovani; assay: GSK_TCAKS: pIC50 Leishmania donovani Imaging: THP-1 Host Macrophages. Assay plates (384-well) were prepared by adding 250nL of compound to each well. For single shot assay, the final compound concentration was 5 uM. […] Automated image analysis was performed with a script developed on Acapella High Content Imaging and Analysis Software (PerkinElmer). Output: THP-1 cell count were reported for each well.; assay type: functional, organism-based, Homo sapiens
parameterMeasured: pIC50
pIC50 is a log-scale quantity: -log10 of the concentration expressed in molar.

compound="COc1ccc(Nc2nc(-c3ccccn3)cc(N3CCCC(O)C3)n2)cc1 (stereo unspecified)" assayresult=4.60
compound=COc1ccc(-c2cc(C)no2)cc1S(=O)(=O)Nc1ccc(F)c(Cl)c1 assayresult=4.50
compound="Cn1nccc1-c1cc(OC(CN)c2ccccc2)cnc1-c1ccco1 (stereo unspecified)" assayresult=4.80
compound=CN(C)CCN(C)Cc1ccc(Cl)cc1NS(=O)(=O)c1ccc(Cl)c(Cl)c1 assayresult=4.50
compound=COCCn1c(-c2ccccc2)cnc1NCc1ccccc1OC assayresult=4.30

Return reported pIC50; argument: O=C(NC1CCN(C2Cc3ccc(NS(=O)(=O)c4cc(F)cc(F)c4)cc3C2)CC1)C1CC1 (stereo unspecified)
4.90

====

system: Trypanosoma cruzi; test: GSK_TCAKS: pIC50 Trypanosoma cruzi viability assay using beta-GAL activity. This assay was run at single shot at 5uM compound concentration per well. The biological reagents consisted of NIH-3T3 host cells and trypomastigotes parasitic cells; both cell types were set to a 3.3 * 10^5 cells/mL dilution in assay DMEM by means of a CASY cell counter device using a 60um capillary. 6 uL of the mixture were dispensed per well (about 1 * 10^3 host-cells and 1 * 10^3 parasites) with a Multidrop Combi dispenser. […] In all wells, the percentage of DMSO never exceeded 0.5%. Plates incubated for four days at 37C, 5% CO2. The substrate used for the assay fluorescence intensity (FLINT) readout was resorufin-beta-D-galactopiranoside (Sigma-Aldrich) at 5uM per well. It was diluted in PBS supplemented with the soft detergent Igepal (Fluka).; assay type: functional, organism-based, Mus musculus; conditions: Tulahuen, NIH3T3
pIC50: −log10 of the molar value.
Quick rule for you: pIC50 at 6 or higher means Satisfied, lower means Not satisfied.

Before answering, review these 4 worked examples.
compound="Cc1ccc(C)c(OC2CCN(C(=O)C(C)n3ccnc3)CC2)c1 (stereo not given)" cat=Satisfied
compound=NS(=O)(=O)c1ccc(Nc2ncc3cccc(OC4CCNCC4)c3n2)cc1 cat="Not satisfied"
compound=N#CN1CC[C@@H](NC(=O)Nc2ccccc2Oc2ccccc2)C1 cat="Not satisfied"
compound=COc1ccc2ncc(=O)n(CCN3CC[C@H](NCc4ncc(Cl)c5[nH]ncc45)[C@H](O)C3)c2n1 cat="Not satisfied"

Attention now shifts to the item below.
Determine whether this compound has pIC50 no lower than 6: Cc1cn[nH]c1C1CCCN(Cc2nc3ccccc3n2C)C1 (stereo not given)
Not satisfied
